Reference for the values: patent US5872210A

Biological target: HIV-1 protease (Human immunodeficiency virus type 1 group M subtype B)
Assay: biochemical
Details: Ki, pH 4.4; 0.083% (12a) and 0.02% (12b) DMSO; 1/V vs [I]
pKi: −log10 of the molar value. Where a SMILES comes first, the peptide text is derived from it.

{"molecule": "N[C@@H](Cc1ccccc1)C(=O)N[C@@H](CC(=O)O)C(=O)N[C@@H](CC(=O)O)C(=O)N[C@@H](Cc1ccccc1)C(=O)O [Peptide 12b, Phe--Asp--Asp--Phe] (H-FDDF-OH)", "target_under_test": "HIV-1 protease (Human immunodeficiency virus type 1 group M subtype B)", "pKi": 4.26}
{"molecule": "N[C@@H](CC(=O)O)C(=O)N[C@@H](CC(=O)O)C(=O)N[C@@H](Cc1ccccc1)C(=O)O [Peptide 12a, Asp--Asp--Phe] (H-Asp-Asp-Phe-OH)", "target_under_test": "HIV-1 protease (Human immunodeficiency virus type 1 group M subtype B)", "pKi": 4.37}
